Origin of measurements: ChEMBL document CHEMBL4330179

Positions of bridges follow the written chain, without caps; N, C: chain ends. Non-standard residues stand in square brackets, D forms with d. Residues, ends and D or L forms follow the SMILES beside them. NMeY = CN[C@@H](Cc1ccc(O)cc1)C(=O)O; NMeF = CN[C@@H](Cc1ccccc1)C(=O)O; NMeS = CN[C@@H](CO)C(=O)O
Ki, Nonstructural protein 3 (Zika virus), per-entry values.
parameter: Ki

>  <molecule>
COc1ccc(C[C@H]2C(=O)N[C@@H](CCCCN)C(=O)N(C)[C@@H](Cc3ccccc3)C(=O)N[C@@H](CCCCN)C(=O)N(C)[C@@H](CO)C(=O)N(C)[C@@H](Cc3ccc(OC)cc3)C(=O)N[C@@H](CCCCN)C(=O)N(C)[C@@H](Cc3ccc(OC)cc3)C(=O)N(C)[C@@H](Cc3ccc(OC)cc3)C(=O)N[C@@H](CCCCN)C(=O)N[C@H](C(N)=O)CSCC(=O)N[C@@H](Cc3ccc(O)cc3)C(=O)N2C)cc1 ({CH2CO}-Y[NMeY](Me)K[NMeF]K[NMeS][NMeY](Me)K[NMeY](Me)[NMeY](Me)KC-NH2; thioether N-12)

>  <parameter>
Ki

>  <recorded.result>
440 nM

$$$$
>  <molecule>
CC[C@H](C)[C@@H]1NC(=O)[C@H](CC(N)=O)NC(=O)[C@H](C(C)C)NC(=O)[C@H](CC(C)C)NC(=O)[C@H]([C@@H](C)O)NC(=O)[C@H](CC(N)=O)NC(=O)[C@H](Cc2ccc(OC)cc2)N(C)C(=O)[C@H]([C@@H](C)CC)NC(=O)[C@H](CCCCN)NC(=O)[C@H](Cc2c[nH]c3ccccc23)NC(=O)[C@H](Cc2ccc(O)cc2)NC(=O)CSC[C@@H](C(N)=O)NC1=O ({CH2CO}-YWKI[NMeY](Me)NTLVNIC-NH2; thioether N-12)

>  <parameter>
Ki

>  <recorded.result>
800 nM

$$$$
>  <molecule>
COc1ccc(C[C@H]2C(=O)N[C@@H](Cc3ccccc3)C(=O)N[C@H](C(N)=O)CSCC(=O)N[C@@H](Cc3ccc(O)cc3)C(=O)N[C@@H]([C@@H](C)O)C(=O)N[C@@H](CC(N)=O)C(=O)N[C@@H](Cc3ccccc3)C(=O)N[C@@H](Cc3ccc(O)cc3)C(=O)N[C@@H](CC(C)C)C(=O)N[C@@H](Cc3ccc(O)cc3)C(=O)N3CCC[C@H]3C(=O)N[C@@H](Cc3ccc(O)cc3)C(=O)N2C)cc1 ({CH2CO}-YTNFYLYPY[NMeY](Me)FC-NH2; thioether N-12)

>  <parameter>
Ki

>  <recorded.result>
2000 nM

$$$$

---

Molecular target: Nonstructural protein 3 (Zika virus)
Sequence (A0A024AXB9 whole entry, the tested form may be a part): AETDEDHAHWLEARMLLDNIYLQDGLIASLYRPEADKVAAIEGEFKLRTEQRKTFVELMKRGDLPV
Test: Binding affinity to C-terminal His6-tagged linked Zika virus NS2B-NS3 protease domain by SPR analysis
Positions of bridges follow the written chain, without caps; N, C: chain ends. Non-standard residues stand in square brackets, D forms with d. Residues, ends and D or L forms follow the SMILES beside them. NMeY = CN[C@@H](Cc1ccc(O)cc1)C(=O)O; Sar = CNCC(=O)O

>  <compound>
CC[C@H](C)[C@@H]1NC(=O)CN(C)C(=O)[C@H](Cc2ccc(O)cc2)NC(=O)CSC[C@@H](C(N)=O)NC(=O)[C@@H]2CCCN2C(=O)[C@H]([C@@H](C)CC)NC(=O)[C@H](Cc2ccc(OC)cc2)N(C)C(=O)[C@H](Cc2ccc(OC)cc2)N(C)C(=O)[C@H](CC(N)=O)NC(=O)[C@H](Cc2ccc(O)cc2)NC(=O)[C@H](CCCCN)NC(=O)[C@H](C)NC1=O ({CH2CO}-Y[Sar]IAKYN[NMeY](Me)[NMeY](Me)IPC-NH2; thioether N-12)

>  <result.unit>
µM

>  <Kd>
0.009

$$$$
>  <compound>
CC[C@H](C)[C@@H]1NC(=O)[C@H](C)NC(=O)[C@@H](Cc2ccc(O)cc2)NC(=O)CSC[C@@H](C(N)=O)NC(=O)[C@H](CC(N)=O)NC(=O)[C@H](CC(C)C)N(C)C(=O)[C@H](Cc2ccc(O)cc2)NC(=O)[C@H](CCCCN)NC(=O)[C@H](CC(N)=O)NC(=O)[C@H](Cc2ccc(O)cc2)NC(=O)[C@H](Cc2ccc(OC)cc2)N(C)C(=O)[C@H]([C@@H](C)CC)NC1=O

>  <result.unit>
µM

>  <Kd>
0.168

$$$$
